System: Candida albicans
Assay: Antifungal activity against Candida albicans ATCC 90023 assessed as inhibition of fungal growth incubated for 24 hrs by CLSI based microbroth dilution method
Assay type: functional
quantity: MIC (µM)

• Cc1ccc(/C=N/Nc2ccc3c4c(cccc24)C(=O)N(CCO)C3=O)o1 = 84
• CCCCc1nc(Cl)c(/C=N/Nc2ccc3c4c(cccc24)C(=O)N(CCO)C3=O)n1Cc1ccc([N+](=O)[O-])cc1 = 7
• CCCCc1nc(Cl)c(/C=N/Nc2ccc3c4c(cccc24)C(=O)N(CCO)C3=O)n1C = 71
• O=C1c2cccc3c(N/N=C/c4ccccn4)ccc(c23)C(=O)N1CCO = 355
• CCCCCCN1C(=O)c2cccc3c(N/N=C(\C)Cn4c([N+](=O)[O-])cnc4C)ccc(c23)C1=O = 1070
• O=C1c2cccc3c(N/N=C/c4ccc([N+](=O)[O-])o4)ccc(c23)C(=O)N1CCO = 2
• CCCCCCCn1c(CCCC)nc(Cl)c1/C=N/Nc1ccc2c3c(cccc13)C(=O)N(CCO)C2=O = 119
• O=C1c2cccc3c(N/N=C/c4cccnc4)ccc(c23)C(=O)N1CCO = 355
• CN1C(=O)c2cccc3c(N/N=C/c4ccc([N+](=O)[O-])o4)ccc(c23)C1=O = 175
• O=C1c2cccc3c(N/N=C/c4c(Cl)cccc4Cl)ccc(c23)C(=O)N1CCO = 300
• C/C(Cn1c([N+](=O)[O-])cnc1C)=N\Nc1ccc2c3c(cccc13)C(=O)N(c1ccc(Cl)cc1Cl)C2=O = 953
• C[n+]1cccc(/C=N/Nc2ccc3c4c(cccc24)C(=O)N(CCO)C3=O)c1.[I-] = 16
• CCCCCCCN1C(=O)c2cccc3c(N/N=C(\C)Cn4c([N+](=O)[O-])cnc4C)ccc(c23)C1=O = 1040
• NN1C(=O)c2cccc3c(N/N=C/c4ccc([N+](=O)[O-])o4)ccc(c23)C1=O = 5
• CCCCc1nc(Cl)c(/C=N/Nc2ccc3c4c(cccc24)C(=O)N(CCO)C3=O)n1CC = 137
• CCCCc1nc(Cl)c(/C=N/Nc2ccc3c4c(cccc24)C(=O)N(CCO)C3=O)n1Cc1ccc(F)cc1 = 4
• C=CCN1C(=O)c2cccc3c(N/N=C(\C)Cn4c([N+](=O)[O-])cnc4C)ccc(c23)C1=O = 1190
• O=C1c2cccc3c(N/N=C/c4ncc[nH]4)ccc(c23)C(=O)N1CCO = 183
• C[n+]1ccccc1/C=N/Nc1ccc2c3c(cccc13)C(=O)N(CCO)C2=O = 255
• O=C1c2cccc3c(N/N=C/c4ccc([N+](=O)[O-])s4)ccc(c23)C(=O)N1CCO = 78
• O=C1c2cccc3c(N/N=C/C=C/c4ccc([N+](=O)[O-])o4)ccc(c23)C(=O)N1CCO = 38
• O=C1c2cccc3c(N/N=C/c4cccc(O)c4)ccc(c23)C(=O)N1CCO = 341
• CCCCc1nc(Cl)c(/C=N/Nc2ccc3c4c(cccc24)C(=O)N(CCO)C3=O)n1Cc1ccccc1F = 15
• O=C1c2cccc3c(N/N=C/c4cncs4)ccc(c23)C(=O)N1CCO = 44
• O=C1c2cccc3c(N/N=C/c4cccs4)ccc(c23)C(=O)N1CCO = 351
• CCCCc1nc(Cl)c(/C=N/Nc2ccc3c4c(cccc24)C(=O)N(CCO)C3=O)n1CCN1CCOCC1 = 4
• CCCCc1nc(Cl)c(/C=N/Nc2ccc3c4c(cccc24)C(=O)N(CCO)C3=O)n1CCC = 67
• CCCCc1nc(Cl)c(/C=N/Nc2ccc3c4c(cccc24)C(=O)N(CCO)C3=O)[nH]1 = 18

----------
System: Candida parapsilosis
Assay: Antifungal activity against Candida parapsilosis ATCC 22019 assessed as inhibition of fungal growth incubated for 24 hrs by CLSI based microbroth dilution method
Type: functional
Settings: Lodderomyces parapsilosis
Mark each entry True if its MIC sits below 90 µM, and False for all others.

• O=C1c2cccc3c(N/N=C/c4c(Cl)cccc4Cl)ccc(c23)C(=O)N1CCO = False
• CCCN1C(=O)c2cccc3c(N/N=C(\C)Cn4c([N+](=O)[O-])cnc4C)ccc(c23)C1=O = False
• CCCCc1nc(Cl)c(/C=N/Nc2ccc3c4c(cccc24)C(=O)N(CCO)C3=O)[nH]1 = False
• O=C1c2cccc3c(N/N=C/c4ccc[nH]4)ccc(c23)C(=O)N1CCO = True
• CCCCc1nc(Cl)c(/C=N/Nc2ccc3c4c(cccc24)C(=O)N(CCO)C3=O)n1Cc1ccc([N+](=O)[O-])cc1 = True
• Cc1ccc(/C=N/Nc2ccc3c4c(cccc24)C(=O)N(CCO)C3=O)o1 = False
• O=C1c2cccc3c(N/N=C/c4cnc(-c5ccccc5)s4)ccc(c23)C(=O)N1CCO = True
• CCCCc1nc(Cl)c(/C=N/Nc2ccc3c4c(cccc24)C(=O)N(CCO)C3=O)n1Cc1cccc(Cl)c1 = True
• C/C(Cn1c([N+](=O)[O-])cnc1C)=N\Nc1ccc2c3c(cccc13)C(=O)N(CCO)C2=O = False
• CN1C(=O)c2cccc3c(N/N=C/c4ccc([N+](=O)[O-])o4)ccc(c23)C1=O = False
• O=C1c2cccc3c(N/N=C/c4ccc(CO)o4)ccc(c23)C(=O)N1CCO = True
• CCCCc1nc(Cl)c(/C=N/Nc2ccc3c4c(cccc24)C(=O)N(CCO)C3=O)n1CC1CC1 = True
• O=C1c2cccc3c(N/N=C/c4cc(Cl)ccc4O)ccc(c23)C(=O)N1CCO = False
• O=C1c2cccc3c(N/N=C/C=C/c4ccc([N+](=O)[O-])o4)ccc(c23)C(=O)N1CCO = False
• CCCCc1nc(Cl)c(/C=N/Nc2ccc3c4c(cccc24)C(=O)N(CCO)C3=O)n1Cc1ccc(Cl)cc1Cl = True
• OC(Cn1cncn1)(Cn1cncn1)c1ccc(F)cc1F [FLUCONAZOLE] = True
• NNc1ccc2c3c(cccc13)C(=O)N(CCO)C2=O = False
• O=C1c2cccc3c(N/N=C/c4ccc(O)c([N+](=O)[O-])c4)ccc(c23)C(=O)N1CCO = True

----------
Test system: Candida parapsilosis
Test: Antifungal activity against Candida parapsilosis ATCC 22019 assessed as inhibition of fungal growth incubated for 24 hrs by CLSI based microbroth dilution method
Format: functional
Details: Lodderomyces parapsilosis
quantity: log10 MIC (log10 of the value in µM)

* C#CCn1c(CCCC)nc(Cl)c1/C=N/Nc1ccc2c3c(cccc13)C(=O)N(CCO)C2=O | 1.83
* C/C(Cn1c([N+](=O)[O-])cnc1C)=N\Nc1ccc2c3c(cccc13)C(=O)N(Cc1ccc(F)cc1)C2=O | 3.01
* CCCCc1nc(Cl)c(/C=N/Nc2ccc3c4c(cccc24)C(=O)N(CCO)C3=O)n1Cc1cccc(F)c1 | 1.46
* O=C1c2cccc3c(N/N=C/c4c[nH]cn4)ccc(c23)C(=O)N1CCO | 1.36
* C[n+]1cccc(/C=N/Nc2ccc3c4c(cccc24)C(=O)N(CCO)C3=O)c1.[I-] | 2.10
* CCCCCCN1C(=O)c2cccc3c(N/N=C(\C)Cn4c([N+](=O)[O-])cnc4C)ccc(c23)C1=O | 3.03
* CCCCc1nc(Cl)c(/C=N/Nc2ccc3c4c(cccc24)C(=O)N(CCO)C3=O)n1Cc1ccc(F)cc1 | 1.76
* O=C1c2cccc3c(N/N=C/c4ccc([N+](=O)[O-])s4)ccc(c23)C(=O)N1CCO | 1.89
* C#CCN1C(=O)c2cccc3c(N/N=C(\C)Cn4c([N+](=O)[O-])cnc4C)ccc(c23)C1=O | 3.07
* CCCCN1C(=O)c2cccc3c(N/N=C(\C)Cn4c([N+](=O)[O-])cnc4C)ccc(c23)C1=O | 3.06
* CCCCc1nc(Cl)c(/C=N/Nc2ccc3c4c(cccc24)C(=O)N(CCO)C3=O)n1C | 2.75
* C/C(Cn1c([N+](=O)[O-])cnc1C)=N\Nc1ccc2c3c(cccc13)C(=O)N(c1ccc(C(F)(F)F)cc1Cl)C2=O | 2.38
* CCCCc1nc(Cl)c(/C=N/Nc2ccc3c4c(cccc24)C(=O)N(CCO)C3=O)n1CCN1CCOCC1 | 2.06
* C=CCn1c(CCCC)nc(Cl)c1/C=N/Nc1ccc2c3c(cccc13)C(=O)N(CCO)C2=O | 2.13
* O=C1c2cccc3c(N/N=C/c4cccs4)ccc(c23)C(=O)N1CCO | 2.24
* CCCCc1nc(Cl)c(/C=N/Nc2ccc3c4c(cccc24)C(=O)N(CCO)C3=O)n1Cc1ccccc1Cl | 1.76

----------
MIC values by entry
Test system: Candida albicans
Assay: Antifungal activity against Candida albicans ATCC 90023 assessed as inhibition of fungal growth incubated for 24 hrs by CLSI based microbroth dilution method
Assay type: functional
quantity: MIC (µM)

- C/C(Cn1c([N+](=O)[O-])cnc1C)=N\Nc1ccc2c3c(cccc13)C(=O)N(c1ccc(F)c(Cl)c1)C2=O: 983
- C/C(Cn1c([N+](=O)[O-])cnc1C)=N\Nc1ccc2c3c(cccc13)C(=O)N(c1ccc(C(F)(F)F)cc1Cl)C2=O: 954
- O=C1c2cccc3c(N/N=C/c4nccs4)ccc(c23)C(=O)N1CCO: 350
- OC(Cn1cncn1)(Cn1cncn1)c1ccc(F)cc1F [FLUCONAZOLE]: 33
